# ASSAYED_TARGET: FGFR3-K650E (Homo sapiens, UniProt P22607, K650E)
# Sequence (P22607 23-806 K650E): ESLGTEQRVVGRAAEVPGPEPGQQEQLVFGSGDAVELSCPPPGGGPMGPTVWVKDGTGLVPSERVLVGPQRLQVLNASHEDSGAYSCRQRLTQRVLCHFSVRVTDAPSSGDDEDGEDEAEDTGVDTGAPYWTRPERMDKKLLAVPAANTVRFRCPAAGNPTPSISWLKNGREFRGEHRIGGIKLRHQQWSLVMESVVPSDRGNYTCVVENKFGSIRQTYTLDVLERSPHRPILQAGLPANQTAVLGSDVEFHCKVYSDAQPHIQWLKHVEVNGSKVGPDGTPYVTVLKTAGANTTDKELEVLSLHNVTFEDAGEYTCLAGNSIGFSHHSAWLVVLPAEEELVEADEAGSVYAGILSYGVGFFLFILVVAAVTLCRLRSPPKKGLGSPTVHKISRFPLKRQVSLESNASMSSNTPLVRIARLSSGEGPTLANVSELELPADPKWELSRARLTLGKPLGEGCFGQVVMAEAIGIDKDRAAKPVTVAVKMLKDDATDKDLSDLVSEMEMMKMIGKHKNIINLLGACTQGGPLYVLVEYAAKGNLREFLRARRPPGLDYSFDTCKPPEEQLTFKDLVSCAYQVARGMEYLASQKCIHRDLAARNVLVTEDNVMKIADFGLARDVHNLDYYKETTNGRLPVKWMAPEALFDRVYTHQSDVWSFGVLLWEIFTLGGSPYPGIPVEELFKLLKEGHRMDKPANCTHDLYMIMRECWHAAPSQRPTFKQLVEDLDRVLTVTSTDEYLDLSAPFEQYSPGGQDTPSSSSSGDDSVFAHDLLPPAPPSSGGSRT
# PROTOCOL_DESCRIPTION: in cellulo FGFR3 phosphorylation in HEK 293 VNR cells transfected with FGFR3-K650E (immunoprecipitation, western blot)
OBSERVED_PROPERTY: pIC50
The scale used: pIC50 is minus the common logarithm of the concentration in molar units.

Req: Request body: readout pIC50, system FGFR3-K650E (Homo sapiens, UniProt P22607, K650E), query COC(=O)c1c(NC(C)=O)c(-c2noc(-c3ccc(Br)cc3)n2)nn1-c1cccc(OC)c1 . Return the value.
Resp: 6.82
